assay: Partition coefficient, log D of the compound; format: physicochemical; details: octanol/water
Listing of recorded logD by entry.
Please give the numeric answer without any surrounding text.

Answer with the recorded logD for the molecule listed here: `Cc1cccc(-c2cc(Nc3ccc4nc(-c5ccc(F)cc5)cc(N)c4c3)nc(N)n2)c1`
3.18

More entries:
Answer with the recorded logD for the molecule listed here: `Nc1nc(Nc2ccc3nc(-c4ccc(F)cc4)cc(N)c3c2)cc(-c2ccc(F)cc2)n1`
3.06

Answer with the recorded logD for the molecule listed here: `Nc1nc(Nc2ccc3nc(-c4ccc(F)cc4)cc(N)c3c2)cc(-c2ccc(Cl)cc2)n1`
3

Answer with the recorded logD for the molecule listed here: `Nc1nc(Nc2ccc3nc(-c4ccc(F)cc4)cc(N)c3c2)cc(-c2cccc(Cl)c2)n1`
3.06

Answer with the recorded logD for the molecule listed here: `Nc1nc(Nc2ccc3nc(-c4ccc(F)cc4)cc(N)c3c2)cc(-c2ccc(C(F)(F)F)cc2)n1`
2.16

###

test: Intrinsic clearance in mouse microsomes assessed per mg protein at 100 uM by HPLC analysis; assay type: ADME, Microsome
Quantity measured: microsomal CLint at 100 µM (µL/min/mg)
Write the value in µL/min/mg as a bare number.

Answer with the recorded microsomal CLint at 100 µM for the compound listed here: `Nc1nc(Nc2ccc3nc(-c4ccc(F)cc4)cc(N)c3c2)cc(-c2ccc(Cl)cc2)n1`
13.4

###

test: Solubility of the compound in 0.1 M phosphate buffer after 24 hrs by UV/MS analysis; assay type: physicochemical
Hi, to clarify the labels: MET covers solubility at 24 h from 20 µM upward, NOT MET covers anything below 20 µM.

Reported solubility at 24 h reaches at least 20 µM for `Cc1cccc(-c2cc(Nc3ccc4nc(-c5ccc(F)cc5)cc(N)c4c3)nc(N)n2)c1` ?
MET

Reported solubility at 24 h reaches at least 20 µM for `Nc1nc(Nc2ccc3nc(-c4ccc(F)cc4)cc(N)c3c2)cc(-c2cccc(Cl)c2)n1` ?
NOT MET

Reported solubility at 24 h reaches at least 20 µM for `Nc1nc(Nc2ccc3nc(-c4ccc(F)cc4)cc(N)c3c2)cc(-c2ccc(Cl)cc2)n1` ?
NOT MET

More entries:
Reported solubility at 24 h reaches at least 20 µM for `Nc1nc(Nc2ccc3nc(-c4ccc(F)cc4)cc(N)c3c2)cc(-c2ccc(F)cc2)n1` ?
NOT MET

Reported solubility at 24 h reaches at least 20 µM for `Nc1nc(Nc2ccc3nc(-c4ccc(F)cc4)cc(N)c3c2)cc(-c2ccc(C(F)(F)F)cc2)n1` ?
MET

###

Listing of recorded MIC by entry.
test system: Mycobacterium tuberculosis; experiment: Antimycobacterial activity against Mycobacterium tuberculosis assessed as growth inhibition after 5 days by MABA/resazurin assay; type: functional; conditions: 120 h
Write the value in µM as a bare number.

Here's what some known entries look like.
Please tell me the measured MIC for `Nc1nc(Nc2ccc3nc(-c4ccc(F)cc4)cc(N)c3c2)cc(-c2cccc(Cl)c2)n1` ; system: Mycobacterium tuberculosis.
2.19

Please tell me the measured MIC for `Nc1nc(Nc2ccc3nc(-c4ccc(F)cc4)cc(N)c3c2)cc(-c2ccccc2F)n1` ; system: Mycobacterium tuberculosis.
3.21

Please tell me the measured MIC for `Nc1nc(Nc2ccc3nc(-c4ccc(F)cc4)cc(N)c3c2)cc(-c2ccccn2)n1` ; system: Mycobacterium tuberculosis.
9.45

Please tell me the measured MIC for `COc1ccccc1-c1cc(Nc2ccc3nc(-c4ccc(F)cc4)cc(N)c3c2)nc(N)n1` ; system: Mycobacterium tuberculosis.
4.42

Please tell me the measured MIC for `COc1cccc(-c2cc(N)c3cc(Nc4cc(-c5ccc(Cl)cc5)nc(N)n4)ccc3n2)c1` ; system: Mycobacterium tuberculosis.
2.13

More entries:
Please tell me the measured MIC for `Cn1ccc(-c2cc(Nc3ccc4nc(-c5ccc(F)cc5)cc(N)c4c3)nc(N)n2)n1` ; system: Mycobacterium tuberculosis.
53.1

Please tell me the measured MIC for `Nc1nc(Nc2ccc3nc(-c4ccc(F)cc4)cc(N)c3c2)cc(-c2ccc(F)cc2)n1` ; system: Mycobacterium tuberculosis.
1.14

Please tell me the measured MIC for `CCc1cc(Nc2ccc3nc(-c4ccc(F)cc4)cc(N)c3c2)nc(N)n1` ; system: Mycobacterium tuberculosis.
15.1

Please tell me the measured MIC for `Nc1nc(Nc2ccc3nc(-c4ccc(F)cc4)cc(N)c3c2)cc(-c2ccccc2)n1` ; system: Mycobacterium tuberculosis.
1.67

Please tell me the measured MIC for `Cc1cc(Nc2ccc3nc(-c4ccc(F)cc4)cc(N)c3c2)nc(N)n1` ; system: Mycobacterium tuberculosis.
22.2

Please tell me the measured MIC for `Cc1cccc(-c2cc(Nc3ccc4nccc(N)c4c3)nc(N)n2)c1` ; system: Mycobacterium tuberculosis.
48.9

Please tell me the measured MIC for `Nc1nc(Nc2ccc3nc(-c4ccc(F)cc4)cc(N)c3c2)cc(-c2ccc(C(F)(F)F)cc2)n1` ; system: Mycobacterium tuberculosis.
2.88

Please tell me the measured MIC for `Nc1nc(Nc2ccc3nc(-c4ccc(F)cc4)cc(N)c3c2)cc(-c2ccc(Cl)cc2)n1` ; system: Mycobacterium tuberculosis.
1.91

Please tell me the measured MIC for `Nc1nc(Nc2cnc3ccccc3c2)cc(-c2ccc(C(F)(F)F)cc2)n1` ; system: Mycobacterium tuberculosis.
66.6

Please tell me the measured MIC for `CC(C)c1cc(Nc2ccc3nc(-c4ccc(F)cc4)cc(N)c3c2)nc(N)n1` ; system: Mycobacterium tuberculosis.
7.28

###

test: Fraction unbound in plasma at 20 uM after 18 hrs by equilibrium dialysis method; assay type: ADME, cell-free
Quantity measured: fraction unbound at 18 h, 20 µM
Please give the numeric answer without any surrounding text.

Answer with the recorded fraction unbound at 18 h, 20 µM for the compound listed here: `Cc1cccc(-c2cc(Nc3ccc4nc(-c5ccc(F)cc5)cc(N)c4c3)nc(N)n2)c1`
0.0144

Answer with the recorded fraction unbound at 18 h, 20 µM for the compound listed here: `Nc1nc(Nc2ccc3nc(-c4ccc(F)cc4)cc(N)c3c2)cc(-c2ccc(Cl)cc2)n1`
0.008

More entries:
Answer with the recorded fraction unbound at 18 h, 20 µM for the compound listed here: `Nc1nc(Nc2ccc3nc(-c4ccc(F)cc4)cc(N)c3c2)cc(-c2ccc(F)cc2)n1`
0.0249

###

test system: Mycobacterium tuberculosis; test: Antimycobacterial activity against Mycobacterium tuberculosis assessed as growth inhibition after 5 days by MABA/resazurin assay; type: functional; settings: 120 h
Quantity measured: MIC

Answer with the recorded MIC for the molecule listed here: `Cc1cc(Nc2ccc3nc(C)ccc3c2)nc(C)n1`
> 121 µM

Answer with the recorded MIC for the molecule listed here: `Cc1cccc(-c2cc(Nc3ccc4nc(-c5ccc(F)cc5)cc(N)c4c3)nc(N)n2)c1`
< 0.81 µM

Next item in the queue.
Answer with the recorded MIC for the molecule listed here: `Nc1nc(Nc2cnc3ccccc3c2)cc(-c2cccc(Cl)c2)n1`
> 73 µM
